Origin of measurements: ChEMBL document CHEMBL1649514

Test system: Stenotrophomonas maltophilia
Assay: Antimicrobial activity against ampD1-deficient Stenotrophomonas maltophilia KJ by twofold serial agar dilution method
Type: functional
MIC reference
VALUE_TYPE: MIC

In [3]: df
Out[3]:
                                   compound           experimental_target  value_observed
0  CCN1CCN(C(=O)N[C@@H](C(=O)N[C@@H]2C(=O)N3[C@@H]2SC(C)(C)[C@@H]3C(=O)O)c2ccccc2)C(=O)C1=O  Stenotrophomonas maltophilia      1020 µg/mL
1  C[C@@H](O)[C@H]1C(=O)N2C(C(=O)O)=C(S[C@@H]3CN[C@H](C(=O)N(C)C)C3)[C@H](C)[C@H]12  Stenotrophomonas maltophilia      > 32 µg/mL
2  CO/N=C(\C(=O)N[C@@H]1C(=O)N2C(C(=O)[O-])=C(C[N+]3(C)CCCC3)CS[C@H]12)c1csc(N)n1 [CEFEPIME]  Stenotrophomonas maltophilia        96 µg/mL
3  CC1(C)S[C@@H]2[C@H](NC(=O)C(C(=O)O)c3ccccc3)C(=O)N2[C@H]1C(=O)O (some centres undefined)  Stenotrophomonas maltophilia      1020 µg/mL
4  CO[C@@]1(NC(=O)Cc2cccs2)C(=O)N2C(C(=O)O)=C(COC(N)=O)CS[C@@H]21  Stenotrophomonas maltophilia      1020 µg/mL
5  CO/N=C(\C(=O)N[C@@H]1C(=O)N2C(C(=O)O)=C(COC(N)=O)CS[C@H]12)c1ccco1  Stenotrophomonas maltophilia      2050 µg/mL
6  C[C@H]1[C@H](NC(=O)/C(=N\OC(C)(C)C(=O)O)c2csc(N)n2)C(=O)N1S(=O)(=O)O  Stenotrophomonas maltophilia    > 2050 µg/mL
7  CO/N=C(\C(=O)N[C@@H]1C(=O)N2C(C(=O)O)=C(CSc3nc(=O)c(O)nn3C)CS[C@H]12)c1csc(N)n1  Stenotrophomonas maltophilia       256 µg/mL
8  C[C@@H](O)[C@H]1C(=O)N2C(C(=O)O)=C(SCCNC=N)C[C@H]12 [IMIPENEM ANHYDROUS]  Stenotrophomonas maltophilia      > 32 µg/mL
